Test system: HBV viral production in AD38 cells
Experiment: Viral load production in AD38 cells by quantitative PCR of the HBV core sequence in supernatant
Format: cell-based
Conditions: Hepatitis B virus, 144 h; 10 μM compound, 6 days at 37° C., viral load in supernatant compared against DMSO control wells; read-out: AD38 Viral Load (CpAM/DMSO %) at 10 μM
activity at 10 µM less than 20% is true; activity at 10 µM greater than or equal to 20% is false.

Please let me know if Cc1c(C(=O)NCCc2cccnc2)ccc2c1NC(=O)c1ccccc1S2 [Compound 1467] shows activity at 10 µM below 20%.
true

Determine if O=C(NCc1cccnc1)c1ccc2c(c1)NC(=O)c1c(F)cccc1S2 [Compound 1490] shows activity at 10 µM strictly lower than 20%.
true

Say whether its activity at 10 µM is strictly beneath 20%. Entry: O=C(Nc1cccc(-c2ccc(O)cc2)c1)c1ccc2c(c1)NC(=O)c1cc(F)ccc1S2 [Compound 1453]
false

Field: below-cutoff. Rule: recorded activity at 10 µM strictly less than 20%. Subject: C[C@@H](O)CNC(=O)c1ccc2c(c1)NC(=O)c1ccccc1S2 [Compound 1221]
true

Quick check: does O=C(NCC12CC3CC(CC(C3)C1)C2)c1ccc2c(c1)NC(=O)c1ccccc1S2 [Compound 1189] have activity at 10 µM under 20%?
true

Please state whether activity at 10 µM is below 20% for O=C(NCCC1CCCCC1)c1ccc2c(c1)NC(=O)c1ccccc1C2 [Compound 1198]
true

Dear reviewer, please state whether Cc1ncsc1CNC(=O)c1ccc2c(c1)NC(=O)c1ccccc1S2 [Compound 1600] has activity at 10 µM strictly beneath 20%.
true

For this molecule, is activity at 10 µM lower than 20%? CN(C)S(=O)(=O)c1ccc(CCNC(=O)c2ccc3c(c2)NC(=O)c2ccccc2N3Cc2ccccc2)cc1 [Compound 1512]
false

Does the reported activity at 10 µM of the following molecule sit strictly below 20%? O=C(NCc1cncnc1)c1cc2c(cc1F)Sc1ccccc1C(=O)N2 [Compound 1428]
false

Strictly below 20% in activity at 10 µM? Cc1nnc(CNC(=O)c2ccc3c(c2)NC(=O)c2ccccc2S3)o1 [Compound 1578]
false

activity at 10 µM under 20%? Item: O=C(NCCCCC1CCCCC1)c1ccc2c(c1)NC(=O)c1ccccc1S2 [Compound 1150]
true

Does Cl.O=C(NCC1CCNC1)c1ccc2c(c1)NC(=O)c1ccccc1S2 (stereo not shown) [Compound 1608, hydrochloride] have activity at 10 µM strictly under 20%?
false

Here's an entry: O=C1Nc2c(cc(F)c(C(=O)NCCc3ccc(-c4ccccc4)cc3)c2F)Sc2ccccc21 [Compound 1497] . Is its activity at 10 µM below 20%?
true

A record lists O=C(NCc1ccncn1)c1ccc2c(c1)NC(=O)c1ccccc1S2 [Compound 1585] . Is its activity at 10 µM below 20%?
false

A record lists O=C(Nc1ccncc1)c1ccc2c(c1)NC(=O)c1ccc(F)cc1S2 [Compound 1366] . Is its activity at 10 µM below 20%?
true

Find out if reported activity at 10 µM for CCN1c2ccc(C(=O)NCCc3ccccn3)cc2NC(=O)c2ccccc21 [Compound 1522] is less than 20%
true

Dear reviewer, please state whether O=C(Nc1cccc(-c2ccccc2)c1)c1ccc2c(c1)NC(=O)c1ccccc1N2Cc1ccccc1 [Compound 1484] has activity at 10 µM strictly beneath 20%.
false

Is activity at 10 µM of CCN1c2ccc(C(=O)NCCc3cccnc3)cc2NC(=O)c2ccccc21 [Compound 1523] strictly below 20%?
true

Bench note: check whether CN1C(=O)c2ccccc2Sc2ccc(C(=O)NCCc3cccc(O)c3)cc21 [Compound 1133] shows activity at 10 µM below 20%
false

Is activity at 10 µM strictly under 20% for the entry O=C(NCCc1cnco1)c1ccc2c(c1)NC(=O)c1ccc(F)cc1S2 [Compound 1402] ?
true

Criterion: activity at 10 µM strictly below 20%. Is it met by CN1c2ccc(C(=O)NCc3cnco3)cc2NC(=O)c2ccccc21 [Compound 1547] ?
true

For O=C(Nc1ncc(-c2ccccc2)s1)c1ccc2c(c1)NC(=O)c1cc(F)ccc1S2 [Compound 1481] , is the recorded activity at 10 µM below the cut-off of 20%?
false

Is activity at 10 µM strictly under 20% for the entry O=C(NCCC1CCCCC1)c1ccc2c(c1)NC(=O)c1cc(F)ccc1S2 [Compound 1285] ?
true

Problem: For the molecule O=C(NCCc1cncnc1)c1ccc2c(c1)NC(=O)c1ccccc1N2Cc1ccccc1 [Compound 1464] , is activity at 10 µM under 20%?
false

hey, is activity at 10 µM for O=C1Nc2cc(S(=O)(=O)N3CCC(O)C3)ccc2Sc2ccccc21 (stereo not shown) [Compound 1433] lower than 20% or not?
false

Please state whether activity at 10 µM is below 20% for Cc1c(C(=O)Nc2cccc(-c3ccccc3)c2)ccc2c1NC(=O)c1ccccc1S2 [Compound 1496]
true

Hi there! Is activity at 10 µM for COC(=O)c1ccccc1-c1cccc(NC(=O)c2ccc3c(c2)NC(=O)c2cc(F)ccc2S3)c1 [Compound 1436] below 20%, do you know?
true

Confirm or reject: activity at 10 µM of Cl.O=C(NCC1CCNCC1)c1ccc2c(c1)NC(=O)c1ccccc1S2 [Compound 1609, hydrochloride] lies strictly below 20%
false

Identify whether the molecule O=C1Nc2c(cc(F)c(C(=O)NCCc3cccnc3)c2F)Sc2ccccc21 [Compound 1531] records activity at 10 µM below 20%.
false

Does the reported activity at 10 µM of O=C(NCc1cccnc1)c1ccc2c(c1)NC(=O)c1ccccc1S2(=O)=O [Compound 1449] stay below 20%?
true

Problem: For the molecule O=C(NCCc1cncs1)c1ccc2c(c1)NC(=O)c1cccc(F)c1S2 [Compound 1528] , is activity at 10 µM under 20%?
true

State whether 20% exceeds activity at 10 µM recorded for O=C(Nc1cccc(-c2ccccn2)c1)c1ccc2c(c1)NC(=O)c1cc(F)ccc1S2 [Compound 1385] .
false

In plain terms, does Cl.O=C(NCC1CCCN1)c1ccc2c(c1)NC(=O)c1ccccc1S2 (stereo not shown) [Compound 1633, hydrochloride] come in under 20% for activity at 10 µM?
false

Determine whether this molecule shows activity at 10 µM lower than 20% (ties excluded): CCc1ccc(CCNC(=O)c2ccc3c(c2)NC(=O)c2ccccc2S3)cc1 [Compound 1185]
true

---

System: AD38 cells
Experiment: Viability of AD38 cells (Promega CellTiter-Glo) at the end of compound treatment
Format: cell-based
Details: 10 μM compound, 6 days, luminescence normalized against DMSO control wells (controls being 100%)
measurement type: AD38 Viability Normalized Result (CPAM/DMSO %) at 10 μM
Quick reminder: number only, in %, skip the unit.

The molecule listed as O=C(Nc1ccccc1O)c1ccc2c(c1)NC(=O)c1ccccc1S2 [Compound 1229] has a reported AD38 Viability Normalized Result (CPAM/DMSO %) at 10 μM of 76

// recorded AD38 Viability Normalized Result (CPAM/DMSO %) at 10 μM for O=C(NCCc1ccccn1)c1ccc2c(c1)NC(=O)c1ccc(F)cc1S2 [Compound 1348] : 107

Given item O=C(Nc1nc2ccccc2s1)c1ccc2c(c1)NC(=O)c1cc(F)ccc1S2 [Compound 1339] , the value recorded as its AD38 Viability Normalized Result (CPAM/DMSO %) at 10 μM is 70

Query CN(C)S(=O)(=O)c1ccc(CCNC(=O)c2cc3c(cc2F)Sc2ccccc2C(=O)N3)cc1 [Compound 1507] yields AD38 Viability Normalized Result (CPAM/DMSO %) at 10 μM of 96

# AD38 Viability Normalized Result (CPAM/DMSO %) at 10 μM (molecule: O=C(NCc1nnc[nH]1)c1ccc2c(c1)NC(=O)c1ccccc1S2 [Compound 1599] ) is 101

// field: AD38 Viability Normalized Result (CPAM/DMSO %) at 10 μM; key: O=C(NCc1cncs1)c1ccc2c(c1)NC(=O)c1ccccc1O2 [Compound 1593] ; value = 133

For Nc1ncc(CNC(=O)c2ccc3c(c2)NC(=O)c2ccccc2S3)s1 [Compound 1613] the molecule record lists AD38 Viability Normalized Result (CPAM/DMSO %) at 10 μM as 122

Recorded AD38 Viability Normalized Result (CPAM/DMSO %) at 10 μM (molecule O=C1Nc2c(cc(F)c(C(=O)NCc3cncnc3)c2F)Sc2ccccc21 [Compound 1518] ): 85

---

System: AD38 cells
Assay: Viability of AD38 cells (Promega CellTiter-Glo) at the end of compound treatment
Type: cell-based
Conditions: 10 μM compound, 6 days, luminescence normalized against DMSO control wells (controls being 100%)
Provide the recorded AD38 Viability Normalized Result (CPAM/DMSO %) at 10 μM for the entries that follow.
// units = %; emit number, no label

// O=C(NCc1cccc(OC(F)(F)F)c1)c1ccc2c(c1)NC(=O)c1ccccc1S2 [Compound 1203] : AD38 Viability Normalized Result (CPAM/DMSO %) at 10 μM value = 89

Lab note: measured AD38 Viability Normalized Result (CPAM/DMSO %) at 10 μM of O=C(Nc1cccc(-c2ccccc2)c1)c1cc2c(cc1F)Sc1ccccc1C(=O)N2 [Compound 1509] was 29

Kindly note the recorded AD38 Viability Normalized Result (CPAM/DMSO %) at 10 μM for Cc1cc2c(cc1C(=O)NCCC1CCCCC1)NC(=O)c1ccccc1S2 [Compound 1275] , which is 93

response.value for O=C(NCc1ccc(-c2ccccc2)cc1)c1ccc2c(c1)NC(=O)c1ccccc1S2 [Compound 1112] (field: AD38 Viability Normalized Result (CPAM/DMSO %) at 10 μM) = 73

Query O=C1Nc2cc(S(=O)(=O)N3CC(O)C3)ccc2Sc2ccccc21 [Compound 1434] yields AD38 Viability Normalized Result (CPAM/DMSO %) at 10 μM of 96

# molecule O=C(Nc1cccnc1)c1ccc2c(c1)NC(=O)c1ccccc1S2 [Compound 1231] ; its AD38 Viability Normalized Result (CPAM/DMSO %) at 10 μM = 93

// field: AD38 Viability Normalized Result (CPAM/DMSO %) at 10 μM; key: O=C(Nc1nc(-c2ccccc2)co1)c1ccc2c(c1)NC(=O)c1cc(F)ccc1S2 [Compound 1454] ; value = 95

Please fill in: AD38 Viability Normalized Result (CPAM/DMSO %) at 10 μM reported for CN(C)CCOc1ccc(CCNC(=O)c2ccc3c(c2)NC(=O)c2ccccc2S3)cc1 [Compound 1154] = 50
